Target: LARP1 LaM (UniProt Q6PKG0-3 323-410)
Assay: ITC; 10 mM MES pH 6.3, 100 mM NaCl, 1 mM TCEP (HPLC and NMR buffer; ITC buffer not stated separately); ITC 293 K, NMR 25 C
binding signal by entry:

binder | measured-result
GGGGGG (ssRNA) [G6] | ~10 fold weaker than A6

Return the recorded binding signal value; entry: AAAACA (ssRNA) [A4CA] ~10 fold weaker than A6

Indicate its recorded binding signal; the binder in question is AAAAAA (ssRNA, 3' phosphate) [A5A(p)] ~200 fold weaker than A6

Identify binding signal associated with the binder UUUUUU (ssRNA) [U6] ~10 fold weaker than A6

Name the recorded binding signal of the item CCCCCC (ssRNA) [C6] in your answer. > 200 fold weaker than A6

Identify binding signal associated with the binder AAAAAC (ssRNA) [A5C] ~10 fold weaker than A6
